# assayTarget: T1, Sgf29 D266Y variant, residues 115-293 (human, UniProt Q96ES7 115-293, D266Y)
# T1 construct: source: E. coli Rosetta BL21 DE3 PlysS, purified (Ni-NTA, TEV cleavage, SEC Superdex 75)
# T1 sequence (looked up): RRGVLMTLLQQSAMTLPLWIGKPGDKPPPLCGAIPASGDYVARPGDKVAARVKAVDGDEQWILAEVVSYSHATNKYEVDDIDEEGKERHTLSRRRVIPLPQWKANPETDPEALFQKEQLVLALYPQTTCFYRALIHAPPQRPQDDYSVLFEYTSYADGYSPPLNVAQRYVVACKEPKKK
# experimentNotes: ITC; peptide (generally 1.2 mM) titrated to protein (100 uM); for variants of low affinity 2.4 mM peptide to 200 uM protein; 25 mM TRIS pH 8.0, 50 mM NaCl, 1 mM DTT; one-site model
# experimentalContext: both partners purified
No end group written: not given here. Me3 = trimethyl (on lysine, trimethyllysine)
recordedEndpoint: Kd (µM)
Field: numeric (µM). Do not append units.

## Task # Kd lookup, item ARTK(Me3)QTARKS-OH (histone H3 N-terminal tail, 10-mer, K4 trimethylated; also called native 10-mer peptide; source: synthetic peptide (manual Fmoc solid-phase synthesis, preparative HPLC)) [10-mer histone 3 peptide H3K4me3 (ARTKme3QTARKS)]
## Result 28

Hello, the source for this data is paper PMC4589357, in case you need it.
